- tgt: LXRα (Homo sapiens, UniProt Q13133)
- Construct: were made by cloning the appropriate full-length cDNAs into the pBacPakhis1 vector; poly-His (pBacPakhis1) (N)
- Sequence (Q13133 whole entry): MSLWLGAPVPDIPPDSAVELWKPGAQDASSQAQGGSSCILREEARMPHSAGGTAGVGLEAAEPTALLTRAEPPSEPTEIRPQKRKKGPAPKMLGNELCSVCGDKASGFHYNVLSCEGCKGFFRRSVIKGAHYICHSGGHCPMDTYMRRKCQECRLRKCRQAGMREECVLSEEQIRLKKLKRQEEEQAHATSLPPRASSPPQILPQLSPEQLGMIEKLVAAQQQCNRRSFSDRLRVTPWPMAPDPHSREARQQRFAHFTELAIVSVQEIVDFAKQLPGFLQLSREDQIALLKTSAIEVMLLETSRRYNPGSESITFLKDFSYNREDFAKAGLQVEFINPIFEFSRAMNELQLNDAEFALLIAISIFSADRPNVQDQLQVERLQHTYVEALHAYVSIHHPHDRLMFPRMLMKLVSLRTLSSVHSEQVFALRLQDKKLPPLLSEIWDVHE
- Sequence (P19793 whole entry, further chain): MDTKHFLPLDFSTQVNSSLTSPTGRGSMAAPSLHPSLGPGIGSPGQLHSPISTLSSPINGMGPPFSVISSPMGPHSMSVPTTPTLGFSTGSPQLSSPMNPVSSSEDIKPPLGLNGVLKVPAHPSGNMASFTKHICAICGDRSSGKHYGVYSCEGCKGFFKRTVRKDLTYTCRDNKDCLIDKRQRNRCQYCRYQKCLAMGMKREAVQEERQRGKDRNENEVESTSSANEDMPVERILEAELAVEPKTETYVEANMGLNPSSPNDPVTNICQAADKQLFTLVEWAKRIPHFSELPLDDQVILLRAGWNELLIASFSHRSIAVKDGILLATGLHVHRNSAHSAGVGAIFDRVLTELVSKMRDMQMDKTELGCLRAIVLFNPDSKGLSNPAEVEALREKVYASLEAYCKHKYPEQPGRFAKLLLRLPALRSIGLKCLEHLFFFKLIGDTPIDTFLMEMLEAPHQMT
- protocol-summary: Scintillation proximity assay (SPA), competition with 3H-24,25-epoxycholesterol
- protocol-conditions: average Ki with respect to LXR α
measurement-name: Ki

# annotated cases, reported Ki shown
compound: O=c1c2c(Cl)cccc2cc(-c2cc(-c3cc(C(F)(F)F)cc(C(F)(F)F)c3)co2)n1Cc1ccc(F)cc1F
Ki: 150 to 500 nM
--
compound: Cc1ccc(Cn2c(-c3ccsc3)cc3ccccc3c2=O)c(C)c1
Ki: > 500 nM
--
compound: Nc1ccc(-c2coc(-c3cc4cccc(Cl)c4c(=O)n3Cc3ccc(F)cc3F)c2)cc1C(F)(F)F
Ki: 10 to 150 nM
--
compound: CS(=O)(=O)c1ccc(-c2ccc(-c3cc4cccc(Cl)c4c(=O)n3Cc3ccc(F)cc3F)s2)cc1
Ki: 10 to 150 nM
--
compound: Cc1cccc(-c2cc3ccccc3c(=O)n2Cc2ccc(C)cc2C)c1
Ki: 150 to 500 nM

Query string: Give recorded Ki. Cc1ccc(Cn2c(-c3ccc(Oc4ccccc4)cc3)cc3cccc(C)c3c2=O)cc1
Result string: 10 to 150 nM

Query string: Give recorded Ki. Cc1ccc(Cn2c(-c3ccc(Oc4ccccc4)cc3)cc3ccccc3c2=O)c(C)c1
Result string: 10 to 150 nM

Query string: Give recorded Ki. Cc1ccc(Cn2c(C#CC(C)(C)O)cc3ccccc3c2=O)c(C)c1
Result string: > 500 nM

Query string: Give recorded Ki. O=c1c2c(Cl)cccc2cc(-c2ccc(Oc3cnccn3)cc2)n1Cc1ccc(F)cc1F
Result string: 10 to 150 nM

Query string: Give recorded Ki. O=c1c2c(Cl)cccc2cc(-c2ccc(Oc3ccccc3)cc2)n1CC1CCCCC1
Result string: 10 to 150 nM

Query string: Give recorded Ki. Cc1cccc(-c2cc3ccccc3c(=O)n2Cc2ccccc2)c1 [2-benzyl-3-m-tolyl-2H-isoquinolin-1-one]
Result string: > 500 nM

Query string: Give recorded Ki. CCOc1ccc(-c2csc(-c3cc4cccc(Cl)c4c(=O)n3Cc3ccc(F)cc3F)c2)cc1Cl
Result string: > 500 nM

Query string: Give recorded Ki. O=c1c2c(Cl)cccc2cc(-c2ccc(Oc3ccccc3)cc2)n1Cc1ccc(F)cc1F
Result string: 10 to 150 nM

Query string: Give recorded Ki. O=c1c2c(Cl)cccc2cc(-c2ccc(Oc3ccccc3)cc2)n1Cc1cccs1
Result string: 10 to 150 nM

----------
- tgt: LXR β (Homo sapiens, UniProt P55055)
- Construct: comprising full-length LXR α (pCMX-hLXR α), LXR β (pCMX-hLXR β), or RXR α (pCMX-RXR)
- Sequence (P55055 whole entry, one chain of several): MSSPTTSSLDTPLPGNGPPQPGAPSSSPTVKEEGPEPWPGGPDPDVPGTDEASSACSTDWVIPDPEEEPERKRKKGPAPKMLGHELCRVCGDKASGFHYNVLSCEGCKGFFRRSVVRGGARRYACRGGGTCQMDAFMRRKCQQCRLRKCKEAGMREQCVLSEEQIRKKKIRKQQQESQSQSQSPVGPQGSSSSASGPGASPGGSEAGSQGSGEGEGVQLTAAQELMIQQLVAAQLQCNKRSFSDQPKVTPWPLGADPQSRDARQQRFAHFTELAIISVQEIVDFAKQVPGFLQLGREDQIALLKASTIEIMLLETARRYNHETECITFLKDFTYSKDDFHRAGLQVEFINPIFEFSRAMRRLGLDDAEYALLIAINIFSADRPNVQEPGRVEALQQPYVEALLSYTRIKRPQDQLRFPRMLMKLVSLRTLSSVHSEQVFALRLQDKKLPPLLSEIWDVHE
- protocol-summary: LXR/LXRE co-transfection assay (luciferase reporter, CV-1 cells)
- protocol-conditions: average EC50 for agonism, cotransfection assay, CV-1 cells
pEC50: −log10 of the molar value.
measurement-name: pEC50

chemical-structure: CCOc1ccc(-c2csc(-c3cc4cccc(Cl)c4c(=O)n3Cc3ccc(F)cc3F)c2)cc1Cl
tgt: LXR β (Homo sapiens, UniProt P55055)
test-value: 6.82 to 8.00

chemical-structure: O=c1c2c(Cl)cccc2cc(-c2ccc(Oc3ccccc3)cc2)n1Cc1cccs1
tgt: LXR β (Homo sapiens, UniProt P55055)
test-value: 6.30 to 6.82

chemical-structure: Cc1ccc(Cn2c(-c3ccc(Oc4ccccc4)cc3)cc3cccc(C)c3c2=O)cc1
tgt: LXR β (Homo sapiens, UniProt P55055)
test-value: 6.82 to 8.00

Query string: Give recorded pEC50. O=c1c2c(Cl)cccc2cc(-c2cc(-c3cc(C(F)(F)F)cc(C(F)(F)F)c3)co2)n1Cc1ccc(F)cc1F
Result string: 6.82 to 8.00

Query string: Give recorded pEC50. Cc1cccc(-c2cc3ccccc3c(=O)n2Cc2ccc(C)cc2C)c1
Result string: < 6.30

----------
- tgt: LXRβ (Homo sapiens)
- Construct: were made by cloning the appropriate full-length cDNAs into the pBacPakhis1 vector; poly-His (pBacPakhis1) (N)
- protocol-summary: Scintillation proximity assay (SPA), competition with 3H-24,25-epoxycholesterol
- protocol-conditions: average Ki with respect to LXR β, read-out: Ki(b)
pKi: −log10 of the molar value.
measurement-name: pKi

# annotated cases, reported pKi shown
chemical-structure: O=c1c2c(Cl)cccc2cc(-c2ccc(Oc3ccccc3)cc2)n1Cc1cccs1
test-value: 6.82 to 8.00

chemical-structure: O=c1c2c(Cl)cccc2cc(-c2ccc(Oc3ccccc3)cc2)n1CC1CCCCC1
test-value: 6.82 to 8.00

chemical-structure: CCOc1ccc(-c2csc(-c3cc4cccc(Cl)c4c(=O)n3Cc3ccc(F)cc3F)c2)cc1Cl
test-value: 6.30 to 6.82

chemical-structure: Cc1cccc(-c2cc3ccccc3c(=O)n2Cc2ccc(C)cc2C)c1
test-value: 6.82 to 8.00

Let's switch to this molecule now.
Query string: Provide pKi, system LXRβ (Homo sapiens), entry Cc1ccc(Cn2c(-c3ccc(Oc4ccccc4)cc3)cc3ccccc3c2=O)c(C)c1
Result string: 6.82 to 8.00

----------
- tgt: LXRβ (Homo sapiens, UniProt P55055)
- Construct: were made by cloning the appropriate full-length cDNAs into the pBacPakhis1 vector; poly-His (pBacPakhis1) (N)
- Sequence (P55055 whole entry, one chain of several): as the sequence (P55055 whole entry, one chain of several) above
- protocol-summary: Scintillation proximity assay (SPA), competition with 3H-24,25-epoxycholesterol
- protocol-conditions: average Ki with respect to LXR β, read-out: Ki(b)
pKi: −log10 of the molar value.
measurement-name: pKi

# annotated cases, reported pKi shown
chemical-structure: CS(=O)(=O)c1ccc(-c2ccc(-c3cc4cccc(Cl)c4c(=O)n3Cc3ccc(F)cc3F)s2)cc1
pKi: 6.82 to 8.00

chemical-structure: Cc1ccc(Cn2c(-c3ccc(Oc4ccccc4)cc3)cc3cccc(C)c3c2=O)cc1
pKi: 6.82 to 8.00

chemical-structure: O=c1c2c(Cl)cccc2cc(-c2ccc(Oc3cnccn3)cc2)n1Cc1ccc(F)cc1F
pKi: 6.82 to 8.00

chemical-structure: O=c1c2c(Cl)cccc2cc(-c2ccc(Oc3ccccc3)cc2)n1Cc1ccc(F)cc1F
pKi: 6.82 to 8.00

Let's switch to this molecule now.
Query string: Give recorded pKi. Cc1ccc(Cn2c(C#CC(C)(C)O)cc3ccccc3c2=O)c(C)c1
Result string: < 6.30

----------
- tgt: LXR α (Homo sapiens)
- Construct: Co-transfection expression plasmids, comprising full-length LXR α (pCMX-hLXR α); expressed in transfected cells; host or cells: CV-1 African Green Monkey kidney cells, transient transfection
- Sequence (Q13133 whole entry): as the sequence (Q13133 whole entry) above
- Sequence (P19793 whole entry partner): as the sequence (P19793 whole entry, further chain) above
- protocol-summary: LXR/LXRE co-transfection assay (luciferase reporter, CV-1 cells)
- Format: cell-based
- protocol-conditions: CV-1, average percent efficacy, relative to control N-(3-((4-fluorophenyl)-(naphthalene-2-sulfonyl)amino)propyl)-2,2-dimethylpropionamide, read-out: % Eff(a)
measurement-name: Emax

chemical-structure: CCOc1ccc(-c2csc(-c3cc4cccc(Cl)c4c(=O)n3Cc3ccc(F)cc3F)c2)cc1Cl
tgt: LXR α (Homo sapiens)
test-value: 40 to 90%
//
chemical-structure: Cc1cccc(-c2cc3ccccc3c(=O)n2Cc2ccc(C)cc2C)c1
tgt: LXR α (Homo sapiens)
test-value: 40 to 90%
//
chemical-structure: Cc1ccc(Cn2c(-c3ccc(Oc4ccccc4)cc3)cc3ccccc3c2=O)c(C)c1
tgt: LXR α (Homo sapiens)
test-value: > 90%

Let's switch to this molecule now.
Query string: Give recorded Emax. Cc1ccc(Cn2c(-c3ccc(Oc4ccccc4)cc3)cc3cccc(C)c3c2=O)cc1
Result string: 40 to 90%

----------
Entries and their EC50
- tgt: LXR β (Homo sapiens, UniProt P55055)
- Construct: comprising full-length LXR α (pCMX-hLXR α), LXR β (pCMX-hLXR β), or RXR α (pCMX-RXR)
- protocol-summary: LXR/LXRE co-transfection assay (luciferase reporter, CV-1 cells)
- protocol-conditions: average EC50 for agonism, cotransfection assay, CV-1 cells

# annotated cases, reported EC50 shown
chemical-structure: O=c1c2c(Cl)cccc2cc(-c2ccc(Oc3ccccc3)cc2)n1CC1CCCCC1
tgt: LXR β (Homo sapiens, UniProt P55055)
test-value: 150 to 500 nM
--
chemical-structure: O=c1c2c(Cl)cccc2cc(-c2ccc(Oc3cnccn3)cc2)n1Cc1ccc(F)cc1F
tgt: LXR β (Homo sapiens, UniProt P55055)
test-value: 10 to 150 nM

Query string: Provide EC50, system LXR β (Homo sapiens, UniProt P55055), entry Cc1ccc(Cn2c(-c3ccsc3)cc3ccccc3c2=O)c(C)c1
Result string: > 500 nM

Query string: Provide EC50, system LXR β (Homo sapiens, UniProt P55055), entry CS(=O)(=O)c1ccc(-c2ccc(-c3cc4cccc(Cl)c4c(=O)n3Cc3ccc(F)cc3F)s2)cc1
Result string: < 10 nM

Query string: Provide EC50, system LXR β (Homo sapiens, UniProt P55055), entry Cc1cccc(-c2cc3ccccc3c(=O)n2Cc2ccccc2)c1
Result string: > 500 nM

Query string: Provide EC50, system LXR β (Homo sapiens, UniProt P55055), entry Cc1ccc(Cn2c(C#CC(C)(C)O)cc3ccccc3c2=O)c(C)c1
Result string: > 500 nM
